Biological target: ENPP1 (Homo sapiens, UniProt P22413)
Sequence (P22413 whole entry): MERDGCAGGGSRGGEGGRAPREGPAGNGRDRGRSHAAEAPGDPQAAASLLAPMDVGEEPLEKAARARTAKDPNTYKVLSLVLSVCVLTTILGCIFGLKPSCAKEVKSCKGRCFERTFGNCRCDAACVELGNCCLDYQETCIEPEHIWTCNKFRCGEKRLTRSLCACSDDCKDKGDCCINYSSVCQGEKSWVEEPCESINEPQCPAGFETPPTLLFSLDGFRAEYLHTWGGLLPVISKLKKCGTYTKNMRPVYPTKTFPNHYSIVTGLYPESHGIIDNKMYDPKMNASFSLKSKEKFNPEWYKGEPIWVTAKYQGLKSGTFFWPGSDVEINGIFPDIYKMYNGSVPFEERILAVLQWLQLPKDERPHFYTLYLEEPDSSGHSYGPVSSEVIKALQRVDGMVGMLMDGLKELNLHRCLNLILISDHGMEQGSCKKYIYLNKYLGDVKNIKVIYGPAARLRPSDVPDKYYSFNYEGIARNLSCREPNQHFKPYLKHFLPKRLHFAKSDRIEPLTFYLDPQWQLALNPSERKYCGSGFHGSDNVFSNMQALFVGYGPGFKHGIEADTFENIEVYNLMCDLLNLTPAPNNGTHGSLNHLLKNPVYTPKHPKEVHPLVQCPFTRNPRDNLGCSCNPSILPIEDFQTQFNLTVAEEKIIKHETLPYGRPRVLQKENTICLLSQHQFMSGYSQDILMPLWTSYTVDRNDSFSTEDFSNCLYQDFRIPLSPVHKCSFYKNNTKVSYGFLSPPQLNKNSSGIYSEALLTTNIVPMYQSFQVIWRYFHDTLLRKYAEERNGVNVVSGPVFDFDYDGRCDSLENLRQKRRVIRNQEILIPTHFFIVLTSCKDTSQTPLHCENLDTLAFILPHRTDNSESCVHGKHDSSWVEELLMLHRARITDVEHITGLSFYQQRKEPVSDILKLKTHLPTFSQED
Test: ENPP1 enzyme inhibition assay
Format: biochemical
Details: read-out: ENPP1 % inhibition ± SD
// values below are reported inhibition at 100 µM
RECORDED_METRIC: inhibition at 100 µM (%)

# MOLECULE, READOUT_NUMBER
data = [
    ("CC1(C(=O)Nc2ccc(OS(C)(=O)=O)cc2)c2ccccc2-c2ccccc21 [7d]", 9.2),
    ("O=C(Nc1ccc(OS(=O)(=O)c2ccc(OC(F)(F)F)cc2)cc1)c1ccccc1 [4t]", 41.4),
    ("Cc1ccc(C(=O)Nc2ccc(OS(=O)(=O)c3ccccc3)cc2)cc1 [4b]", 45.2),
    ("Cc1ccc(C(=O)Nc2ccc(OS(=O)(=O)c3ccc(C)cc3)cc2)cc1 [4a]", 26.2),
    ("Cc1ccc(C(=O)Nc2ccc(OS(=O)(=O)c3ccc(Cl)cc3)cc2)cc1 [4e]", 44.8),
]
